- ASSAY TARGET: Delta-type opioid receptor (Rattus norvegicus, UniProt P33533)
- Sequence (P33533 whole entry): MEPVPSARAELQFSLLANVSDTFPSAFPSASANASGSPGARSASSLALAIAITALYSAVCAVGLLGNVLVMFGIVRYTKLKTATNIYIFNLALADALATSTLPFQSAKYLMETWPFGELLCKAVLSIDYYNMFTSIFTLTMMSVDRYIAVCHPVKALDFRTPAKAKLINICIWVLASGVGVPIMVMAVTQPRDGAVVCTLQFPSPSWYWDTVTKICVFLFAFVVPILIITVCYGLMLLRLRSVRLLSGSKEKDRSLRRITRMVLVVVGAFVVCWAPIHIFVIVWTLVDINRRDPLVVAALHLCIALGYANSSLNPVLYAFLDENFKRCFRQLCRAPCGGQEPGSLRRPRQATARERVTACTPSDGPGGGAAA
- ASSAY PROTOCOL: Displacement of [3H]deltorphin 2 from delta opioid receptor in Sprague-Dawley rat brain P2 synaptosome membrane
MEASURED PARAMETER: pKi
pKi field: float, defined as -log10 of concentration (mol/L).

Solved cases below.
Cc1cc(O)cc(C)c1C[C@H](N)C(=O)N1CCC[C@H]1C(=O)N[C@@H](Cc1ccccc1)C(=O)N[C@@H](Cc1ccccc1)C(N)=O; 7.00
Cc1cc(O)cc(C)c1C[C@H](N)C(=O)N1CCC[C@H]1C(=O)N[C@@H](Cc1c(C)cccc1C(C)C)C(=O)N[C@@H](Cc1ccccc1)C(N)=O; 8.34

Lab note: next compound to report on.
Exam item: # input compound: Cc1cc(C)c(C[C@H](NC(=O)[C@@H]2CCCN2C(=O)[C@@H](N)Cc2c(C)cc(O)cc2C)C(=O)N[C@@H](Cc2ccccc2)C(N)=O)c(C)c1 ; wanted: its pKi
Marked response: 8.74
